Target: ClpXP (Escherichia coli, UniProt P0A6G7+P0A6H1)
Sequence (P0A6G7 15-207): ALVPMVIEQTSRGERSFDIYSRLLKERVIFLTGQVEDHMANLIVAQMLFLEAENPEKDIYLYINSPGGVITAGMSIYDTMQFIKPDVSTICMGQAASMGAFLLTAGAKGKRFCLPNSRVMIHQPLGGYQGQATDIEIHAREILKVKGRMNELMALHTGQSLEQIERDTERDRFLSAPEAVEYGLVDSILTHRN
Sequence (P0A6H1 whole entry): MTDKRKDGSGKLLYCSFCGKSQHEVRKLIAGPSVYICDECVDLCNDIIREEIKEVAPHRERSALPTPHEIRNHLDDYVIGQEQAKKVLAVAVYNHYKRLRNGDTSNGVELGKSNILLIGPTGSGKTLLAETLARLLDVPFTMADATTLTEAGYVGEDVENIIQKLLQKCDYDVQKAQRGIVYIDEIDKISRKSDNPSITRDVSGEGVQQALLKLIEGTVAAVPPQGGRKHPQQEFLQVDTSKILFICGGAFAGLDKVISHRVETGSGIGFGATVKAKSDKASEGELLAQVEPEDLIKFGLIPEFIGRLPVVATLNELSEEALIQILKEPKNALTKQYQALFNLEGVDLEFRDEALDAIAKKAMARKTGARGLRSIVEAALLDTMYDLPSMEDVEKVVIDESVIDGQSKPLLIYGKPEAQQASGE
Assay: biochemical
Type: biochemical, E. coli
Settings: at the concentrations tested
Where a SMILES comes first, the peptide text is derived from it.
parameter: inhibition of ClpXP proteolysis of GFP-tag in vitro

compound	experimental-value
CC(C)C[C@@H]1NC(=O)[C@@H]2CCCN2C(=O)CNC(=O)[C@H](CCC(N)=O)NC(=O)[C@H](C(C)C)NC(=O)[C@H](CCCNC(=N)N)NC(=O)[C@H](Cc2c[nH]c3ccccc23)NC(=O)CNC(=O)[C@H](CO)NC1=O [ICP2, SGWRVQGPL] (HELM PEPTIDE1{G.P.L.S.G.W.R.V.Q}$PEPTIDE1,PEPTIDE1,1:R1-9:R2$$$V2.0)	inhibited
CC(C)C[C@@H]1NC(=O)[C@@H]2CCCN2C(=O)[C@H](CC(C)C)NC(=O)[C@H](C(C)C)NC(=O)CNC(=O)[C@H](CCCCN)NC(=O)[C@H](CO)NC(=O)CNC(=O)[C@H](CO)NC1=O [ICP1, SGSKGVLPL] (HELM PEPTIDE1{G.S.K.G.V.L.P.L.S}$PEPTIDE1,PEPTIDE1,1:R1-9:R2$$$V2.0)	inhibited
